System: Saccharomyces cerevisiae BY4741 SeMeCo community
Experiment: z-score of subpopulation abundance vs DMSO median, subpopulation auxotrophic for LU; higher = larger share of this subpopulation than in DMSO controls
Condition Parameters: 10 µM; 24 h; SM minimal medium; subpopulation (auxotrophy): LU
Counter-ions that a name gives are not always drawn.
Short version: z-score of subpopulation abundance at least 0.1 is T, less is F.

INPUT: Assess whether reported z-score of subpopulation abundance for `Cc1cccc(C#Cc2ccccc2)n1` sits at 0.1 or higher.
OUTPUT: T

INPUT: Given the entry COc1ccc(CNc2nc(N3CCC[C@H]3CO)ncc2C(=O)NCc2ncccn2)cc1Cl [Avanafil] , answer whether its z-score of subpopulation abundance meets or surpasses 0.1.
OUTPUT: F

INPUT: Determine whether this compound has z-score of subpopulation abundance no lower than 0.1: Cc1ccnc(NS(=O)(=O)c2ccc(N)cc2)n1 [Sulfamerazine]
OUTPUT: T

INPUT: Confirm if z-score of subpopulation abundance reported for the compound CC[C@H]1OC(=O)[C@H](C)[C@@H](O[C@H]2C[C@@](C)(OC)[C@@H](O)[C@H](C)O2)[C@H](C)[C@@H](O[C@@H]2O[C@H](C)C[C@H](N(C)C)[C@H]2O)[C@](C)(O)C[C@@H](C)CN(C)[C@H](C)[C@@H](O)[C@]1(C)O [Azithromycin] is 0.1 or above.
OUTPUT: T

INPUT: Would you say CCCc1nn(C)c2c(=O)[nH]c(-c3cc(S(=O)(=O)N4CCN(C)CC4)ccc3OCC)nc12 [Sildenafil Mesylate] shows z-score of subpopulation abundance at minimum 0.1?
OUTPUT: T

INPUT: # bool: z-score of subpopulation abundance of CC(=O)O[C@H]1C[C@@]2(C)[C@@H](C[C@@H](O)[C@H]3[C@@]4(C)CC[C@@H](O)[C@@H](C)[C@@H]4CC[C@@]32C)/C1=C(\CCC=C(C)C)C(=O)O [Fusidate Sodium] >= 0.1
OUTPUT: T

INPUT: # check: z-score of subpopulation abundance of COc1cccc(-c2c(C)n(Cc3c(F)cccc3C(F)(F)F)c(=O)n(C[C@H](NCCCC(=O)O)c3ccccc3)c2=O)c1F [Elagolix Sodium] is greater than or equal to 0.1
OUTPUT: F

* * *

Tested on: Saccharomyces cerevisiae BY4741 SeMeCo community
Experiment: z-score of subpopulation abundance vs DMSO median, subpopulation auxotrophic for LU; higher = larger share of this subpopulation than in DMSO controls
Condition Parameters: 10 µM; 24 h; SM minimal medium; subpopulation (auxotrophy): LU
Where a name gives a salt, the structure may show the parent alone.
I'd appreciate it if you could supply z-score of subpopulation abundance values for the items below.
I only need the number, thanks.

INPUT: Fill in: z-score of subpopulation abundance of CCN1CC(CCN2CCOCC2)C(c2ccccc2)(c2ccccc2)C1=O (configuration not stated) [Doxapram HCl] is ___
OUTPUT: -1.17

INPUT: Any idea what z-score of subpopulation abundance was measured for CCN(CC)CCOCCOC(=O)C1(c2ccccc2)CCCC1 [Pentoxyverine Citrate] ?
OUTPUT: 0.06

INPUT: Recorded z-score of subpopulation abundance of NC(=O)N/N=C/c1ccc([N+](=O)[O-])o1 [Nitrofural] , please.
OUTPUT: -0.35

INPUT: Name the recorded z-score of subpopulation abundance for COc1ccnc(C[S+]([O-])c2nc3cc(-n4cccc4)ccc3[nH]2)c1C (configuration not stated) [Ilaprazole] .
OUTPUT: 0

INPUT: Bench note: what z-score of subpopulation abundance did CS(=O)(=O)c1ccc(C2=C(c3ccccc3)C(=O)OC2)cc1 [Rofecoxib] show?
OUTPUT: 0.3

INPUT: Query: z-score of subpopulation abundance; subject: CCOC(=O)C1=C[C@@H](OC(CC)CC)[C@H](NC(C)=O)[C@@H](N)C1 [Oseltamivir Phosphate]
OUTPUT: -0.72

INPUT: # z-score of subpopulation abundance lookup, item CCCOc1ccc2[nH]c(NC(=O)OC)nc2c1 [Oxibendazole]
OUTPUT: 1.03

* * *

Test system: Saccharomyces cerevisiae BY4741 SeMeCo community
Experiment: z-score of subpopulation abundance vs DMSO median, subpopulation auxotrophic for HLM; higher = larger share of this subpopulation than in DMSO controls
Condition Parameters: 10 µM; 24 h; SM minimal medium; subpopulation (auxotrophy): HLM
Counter-ions that a name gives are not always drawn.
Value Kind: z-score of subpopulation abundance
Format: numeric value only, no unit, no commentary.

INPUT: Recorded z-score of subpopulation abundance for C[C@]12CC[C@@H]3c4ccc(OS(=O)(=O)O)cc4CC[C@H]3[C@@H]1CCC2=O [Estropipate] with Saccharomyces cerevisiae BY4741 SeMeCo community, please?
OUTPUT: -0.64

INPUT: What value of z-score of subpopulation abundance on Saccharomyces cerevisiae BY4741 SeMeCo community does CCCN(CCC)CCc1cccc2c1CC(=O)N2 [Ropinirole HCl] have?
OUTPUT: -0.19

INPUT: Please state recorded z-score of subpopulation abundance (tested on Saccharomyces cerevisiae BY4741 SeMeCo community) of CN[C@@H]1[C@H](O)[C@H](NC)[C@H]2O[C@@]3(O)C(=O)C[C@@H](C)O[C@H]3O[C@@H]2[C@H]1O [Spectinomycin 2HCl]
OUTPUT: -0.57

INPUT: Please provide the recorded z-score of subpopulation abundance for NC12CC3CC(CC(C3)C1)C2 [Amantadine HCl] , tested on Saccharomyces cerevisiae BY4741 SeMeCo community.
OUTPUT: -0.47

INPUT: Could you share what z-score of subpopulation abundance was measured for Cc1c(S(=O)(=O)O)oc2c1C(=O)C(=O)c1c-2ccc2c1CCCC2(C)C [Tanshinone IIA sulfonate (sodium)] , tested on Saccharomyces cerevisiae BY4741 SeMeCo community?
OUTPUT: 3.71

INPUT: z-score of subpopulation abundance of C[C@@H](O)[C@H]1C(=O)N2C(C(=O)O)=C(S[C@@H]3CN[C@H](C(=O)N(C)C)C3)[C@H](C)[C@H]12 [Meropenem Trihydrate] on Saccharomyces cerevisiae BY4741 SeMeCo community?
OUTPUT: 0.4

INPUT: Report z-score of subpopulation abundance for CN(C)CCCN1c2ccccc2Sc2ccc(Cl)cc21 [Chlorpromazine HCl] tested on Saccharomyces cerevisiae BY4741 SeMeCo community.
OUTPUT: 0.11

INPUT: API: value(readout= z-score of subpopulation abundance, system= Saccharomyces cerevisiae BY4741 SeMeCo community, query= CC(C(=O)O)c1ccc(C(=O)c2cccs2)cc1 (stereo not given) )
OUTPUT: -0.28

INPUT: Provide value of z-score of subpopulation abundance for this record tested with Saccharomyces cerevisiae BY4741 SeMeCo community: Cc1nc(Nc2ccc(F)cc2)nc(N2CCc3ccccc3C2C)c1C (stereo not given) [Revaprazan Hydrochloride]
OUTPUT: -0.32

INPUT: Query the reported z-score of subpopulation abundance for Saccharomyces cerevisiae BY4741 SeMeCo community; item: `CCC1(c2ccccc2)C(=O)NCNC1=O`
OUTPUT: 0.29

INPUT: Reported z-score of subpopulation abundance for Saccharomyces cerevisiae BY4741 SeMeCo community, given `C[C@]12CC[C@@H]3c4ccc(O)cc4CC[C@H]3[C@@H]1CC[C@@H]2O` ?
OUTPUT: -0.66

INPUT: Hi! What's the reported z-score of subpopulation abundance for CO/N=C(\C(=O)N[C@@H]1C(=O)N2C(C(=O)O)=CCS[C@H]12)c1csc(N)n1 [Ceftizoxime] on Saccharomyces cerevisiae BY4741 SeMeCo community?
OUTPUT: -0.37

INPUT: Which z-score of subpopulation abundance is reported with Saccharomyces cerevisiae BY4741 SeMeCo community for this entry: C=C[C@H]1CN2CC[C@H]1C[C@@H]2[C@@H](O)c1ccnc2ccc(OC)cc12 [Quinidine sulfate] ?
OUTPUT: 1.12

INPUT: Lookup: z-score of subpopulation abundance / Saccharomyces cerevisiae BY4741 SeMeCo community / CO[C@H]1C[C@@H]2CC[C@@H](C)[C@@](O)(O2)C(=O)C(=O)N2CCCC[C@H]2C(=O)O[C@H]([C@H](C)C[C@@H]2CC[C@@H](O)[C@H](OC)C2)CC(=O)[C@H](C)/C=C(\C)[C@@H](O)[C@@H](OC)C(=O)[C@H](C)C[C@H](C)/C=C/C=C/C=C/1C [Rapamycin (Sirolimus)]
OUTPUT: 16

INPUT: // map N#CC(c1ccc(Cl)cc1)c1c(Cl)cc(-n2ncc(=O)[nH]c2=O)cc1Cl (stereo not given) to recorded z-score of subpopulation abundance (system: Saccharomyces cerevisiae BY4741 SeMeCo community)
OUTPUT: 0.16

* * *

Hi there, I'd appreciate the recorded z-score of subpopulation abundance for every entry that follows.
Tested on: Saccharomyces cerevisiae BY4741 SeMeCo community
Experiment: z-score of subpopulation abundance vs DMSO median, subpopulation auxotrophic for LM; higher = larger share of this subpopulation than in DMSO controls
Condition Parameters: 10 µM; 24 h; SM minimal medium; subpopulation (auxotrophy): LM
The response must contain the number and no unit.

INPUT: Tell me the measured z-score of subpopulation abundance of C[C@]1(COc2ccc(N3CCC(Oc4ccc(OC(F)(F)F)cc4)CC3)cc2)Cn2cc([N+](=O)[O-])nc2O1 [Delamanid] , please.
OUTPUT: 0.45

INPUT: Give its z-score of subpopulation abundance value. Item: COCCCOc1ccnc(C[S+]([O-])c2nc3ccccc3[nH]2)c1C (stereo not drawn) [Rebeprazole sodium]
OUTPUT: 0.03

INPUT: Consider the molecule C[N+](C)(C)CCO.[Cl-] [Choline Chloride] and give its measured z-score of subpopulation abundance.
OUTPUT: -0.75
